MEASURED PROPERTY: melting point

COMPOUND	MEASURED PROPERTY	RESULT
COc1ccc(Nc2ccncc2)c(C(=O)N2CCCCC2)c1	melting point	176 to 178 °C
CCCCCCCOc1ccc(C(=O)CCC(=O)OCC)cc1	melting point	39.7 to 40.1 °C
CC(C)(C)c1csc(-c2cc3cc(C=O)ccc3o2)n1	melting point	83 to 84 °C
COc1ccc(CC(=O)c2c(O)cc(OC)cc2OC)c(OC)c1	melting point	116 to 119 °C
CC(C)(C)NCC(O)COc1ccccc1Cc1cccc2[nH]ccc12 (stereo not given)	melting point	78 °C
CC(C)C(C#N)Nc1ccc(C(F)(F)F)cc1 (stereo not given)	melting point	64.5 to 67 °C
CCOc1cc2cc(C(=O)O)sc2cc1OCC	melting point	243 to 245 °C
CC(C)CC(NC(=O)Cc1ccc(NC(=O)Nc2ccccc2F)cc1)c1ncc(CCC(=O)O)s1 (stereo not given)	melting point	83 to 85 °C
O=C(Nc1cccc(-c2c(-c3ccccc3C(F)(F)F)cnc3c(C(F)(F)F)cccc23)c1)Nc1ccccc1Cl	melting point	230 to 232 °C
CCCCCCCNC(=O)Nc1ccccc1N(C)C(=O)c1cc(C(C)(C)C)c(O)c(C(C)(C)C)c1	melting point	193 to 196 °C

I need melting point for every entry listed below, if you could help.
1. C[C@H](NC(=O)OCc1ccccc1)C(=O)N[C@@H](Cc1ccccc1)C(=O)OCc1ccccc1
2. CCCCc1nc(Cl)c(CC(=O)O)n1Cc1ccc(NC(=O)c2ccccc2C(=O)O)cc1
3. Cc1c(NC(=O)CC(C)(C)C)cc2c(c1C)OC(C)(C)C2c1ccccc1C(C)C (stereo not given)
4. C=CCOC(=O)c1c(C)nc2c(cnn2CCOCC)c1N
5. CS(=O)(=O)c1ccc(/C(=C(/CO)CCO)c2ccc(Cl)cc2)cc1
6. COC1C(CO)OC(n2c3ccc(C=O)cc3c3c4c(c5c6cc(C=O)ccc6[nH]c5c32)C(=O)NC4=O)C(O)C1O (stereo not given)
7. Cc1c(C)c2c(c(C)c1Br)C(c1ccccc1)CO2 (stereo not given)
8. Cc1cc(=O)n2cccc(O)c2n1

# output
1: 118 to 119 °C; 2: 170 to 175 °C; 3: 188 to 189 °C; 4: 38 to 40 °C; 5: 159 to 160 °C; 6: > 300 °C; 7: 107 to 108 °C; 8: 144 to 145 °C

I need melting point for every entry listed below, if you could help.
1. Oc1cc(-c2cccc(C(F)(F)F)c2)nc2ccnn12
2. CN1C(=O)C(c2cccc(OCc3ccccc3)c2)(c2cnn(CC(F)(F)F)c2)N=C1N (stereo not given)

# output
305 to 310 °C
85 to 87 °C

These measurements were taken from a melting point compilation (Tetko et al.; mined from patent text by program, amines drawn as free bases though some values may be those of a salt).
